# system: EP3α (Mus musculus, UniProt P30557)
# Construct: expressed in transfected cells; host or cells: CHO cells (membrane fraction)
# Sequence (P30557 1-365): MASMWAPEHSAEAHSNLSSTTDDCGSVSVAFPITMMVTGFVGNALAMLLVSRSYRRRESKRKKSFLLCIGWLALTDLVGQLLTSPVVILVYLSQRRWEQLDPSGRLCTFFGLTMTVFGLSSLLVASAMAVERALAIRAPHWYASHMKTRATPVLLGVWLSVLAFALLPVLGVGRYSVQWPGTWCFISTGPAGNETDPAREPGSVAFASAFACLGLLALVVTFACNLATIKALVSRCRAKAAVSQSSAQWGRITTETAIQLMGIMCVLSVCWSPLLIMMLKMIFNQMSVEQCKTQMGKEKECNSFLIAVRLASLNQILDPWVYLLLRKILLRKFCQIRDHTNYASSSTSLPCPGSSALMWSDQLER
# assay_procedure: Binding assay using expression CHO cell of prostanoid receptor subtype, [3H]-PGE2 binding inhibition (EP3α)
# experimental_parameters: membrane fraction of CHO cells expressing mouse EP3α; [3H]-PGE2 2.5 nM; Ki=IC50/(1+([C]/Kd)); read-out: Dissociation Constant Ki (μM) EP3α
# Ki annotations
Give the value, in units of µM, as a plain number.

Past entries and their recorded results:
{"columns": ["molecule", "units_label", "experimental_value"],
 "data": [
  ["CCOCc1cccc(C[C@H](O)/C=C/[C@H]2[C@H](O)CC(=O)[C@@H]2C/C=C\\CCCC(=O)O)c1", "µM", 0.54],
  ["COc1ccc(C[C@H](O)/C=C/[C@H]2[C@H](O)CC(=O)[C@@H]2C/C=C\\CCCC(=O)O)cc1 [reference compound]", "µM", 0.048],
  ["CCOCc1cccc(C[C@H](O)/C=C/[C@@H]2[C@@H](C/C=C\\CCCC(=O)O)[C@H](Cl)C[C@H]2O)c1", "µM", 0.04]
]}

Consider now this further molecule.
Sample Cc1ccc(C[C@H](O)/C=C/[C@H]2[C@H](O)CC(=O)[C@@H]2C/C=C\CCCC(=O)O)cc1 [reference compound] , system: EP3α (Mus musculus, UniProt P30557). Its Ki is 0.011
